# assayed target: T1, polo-box domain of Cdc5 (residues 418–705) (Saccharomyces cerevisiae, UniProt P32562 418-705)
# T1 construct: Cdc5, Polo-like kinase of Saccharomyces cerevisiae, residues 418-705 (polo-box domain with the preceding extension), subcloned in pPROEX HTa; Residues 418-459 disordered in the crystal; loop 594-601 possibly cleaved during crystallization of the apo form; also called Cdc5^PBD; PBD of Cdc5
# T1 sequence (looked up): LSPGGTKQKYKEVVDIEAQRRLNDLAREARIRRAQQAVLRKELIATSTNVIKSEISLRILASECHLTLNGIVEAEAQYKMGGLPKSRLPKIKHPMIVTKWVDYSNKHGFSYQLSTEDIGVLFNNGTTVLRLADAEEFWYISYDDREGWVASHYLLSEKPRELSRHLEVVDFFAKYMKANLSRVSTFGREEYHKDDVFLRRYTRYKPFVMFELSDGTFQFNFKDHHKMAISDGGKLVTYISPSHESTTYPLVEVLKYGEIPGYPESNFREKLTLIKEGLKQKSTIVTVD
# experiment: ITC; Nano ITC; 30 µM protein in the chamber cell, 280 µM peptide in the syringe; storage buffer (50 mM TRIS-HCl pH 7.0, 200 mM NaCl, 1.4 mM 2-mercaptoethanol, 5% glycerol) with 20 mM EDTA pH 8.0
# measurement context: both partners purified
pKd: −log10 of the molar value.
measurement name: pKd

Recorded pKd (binder EKKRARIERARSIEGAVQVSKGTG (Dbf4, regulatory subunit of the Dbf4-dependent kinase of budding yeast, residues 73-96; Peptide used for ITC and NMR; also called Dbf4 peptide; source: synthetic peptide, bought: GenScript) [Dbf4-derived peptide (73-96)] ): ~6.30
